Catalogue of koff values
# Target: T1, human IL-33 (R&D Systems, #3625-IL-010/CF) (human, UniProt O95760 112-270)
# T1 construct: Commercial recombinant protein; also called hIL-33; interleukin-33
# T1 sequence (looked up): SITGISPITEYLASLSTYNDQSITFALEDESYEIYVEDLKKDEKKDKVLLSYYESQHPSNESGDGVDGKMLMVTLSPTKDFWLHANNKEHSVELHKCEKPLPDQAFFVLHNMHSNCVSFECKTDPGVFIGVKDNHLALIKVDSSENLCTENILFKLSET
# Test description: SPR 25C pH7.4, mAb captured
Unit s⁻¹ implied. Number only.

In: GET /values?readout=koff&item= H4H9665P (antibody, human IgG4, V domains shown, Human IgG4 Fc (H4H)) VH: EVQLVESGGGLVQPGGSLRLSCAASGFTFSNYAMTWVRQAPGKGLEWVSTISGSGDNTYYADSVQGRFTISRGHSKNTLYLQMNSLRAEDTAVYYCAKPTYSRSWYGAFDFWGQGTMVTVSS VL: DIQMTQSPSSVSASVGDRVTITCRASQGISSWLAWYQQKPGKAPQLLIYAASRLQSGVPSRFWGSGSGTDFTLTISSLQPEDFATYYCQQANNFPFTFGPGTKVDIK
Out: 0.000474

In: GET /values?readout=koff&item= H4H9675P (antibody, human IgG4, V domains shown, Human IgG4 Fc (H4H)) VH: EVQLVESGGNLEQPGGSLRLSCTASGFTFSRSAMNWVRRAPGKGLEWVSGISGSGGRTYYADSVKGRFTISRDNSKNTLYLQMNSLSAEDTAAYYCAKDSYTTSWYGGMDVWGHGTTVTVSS VL: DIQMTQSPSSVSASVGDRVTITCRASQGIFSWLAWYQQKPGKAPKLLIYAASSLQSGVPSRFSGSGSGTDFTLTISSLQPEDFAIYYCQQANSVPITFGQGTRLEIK
Out: 0.000258

In: GET /values?readout=koff&item= H4H9660P (antibody, human IgG4, V domains shown, Human IgG4 Fc (H4H)) VH: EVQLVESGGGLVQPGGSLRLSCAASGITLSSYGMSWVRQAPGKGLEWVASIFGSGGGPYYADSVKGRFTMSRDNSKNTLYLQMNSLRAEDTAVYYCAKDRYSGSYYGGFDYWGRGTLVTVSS VL: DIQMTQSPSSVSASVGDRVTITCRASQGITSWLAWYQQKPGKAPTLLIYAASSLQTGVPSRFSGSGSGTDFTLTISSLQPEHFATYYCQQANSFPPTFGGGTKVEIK
Out: 0.000224

In: GET /values?readout=koff&item= H4H9667P (antibody, human IgG4, V domains shown, Human IgG4 Fc (H4H)) VH: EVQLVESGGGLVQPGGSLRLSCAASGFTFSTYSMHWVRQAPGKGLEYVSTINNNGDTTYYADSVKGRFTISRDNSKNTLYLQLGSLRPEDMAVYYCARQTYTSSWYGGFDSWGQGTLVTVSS VL: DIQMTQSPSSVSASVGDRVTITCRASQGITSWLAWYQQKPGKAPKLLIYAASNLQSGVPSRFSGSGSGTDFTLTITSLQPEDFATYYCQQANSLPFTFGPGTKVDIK
Out: 0.000252

In: GET /values?readout=koff&item= H4H9659P (antibody, human IgG4, V domains shown, Human IgG4 Fc (H4H)) VH: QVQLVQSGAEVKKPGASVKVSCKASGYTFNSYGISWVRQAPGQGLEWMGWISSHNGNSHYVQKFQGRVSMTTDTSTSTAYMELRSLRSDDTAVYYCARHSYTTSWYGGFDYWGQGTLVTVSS VL: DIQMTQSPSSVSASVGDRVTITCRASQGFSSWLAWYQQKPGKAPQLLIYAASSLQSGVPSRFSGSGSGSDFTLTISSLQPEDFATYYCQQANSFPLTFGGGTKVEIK
Out: 0.000172
